system: human CD33 K250A (human, UniProt P20138 18-364)
Sequence (P20138 18-364 K250A limits assumed): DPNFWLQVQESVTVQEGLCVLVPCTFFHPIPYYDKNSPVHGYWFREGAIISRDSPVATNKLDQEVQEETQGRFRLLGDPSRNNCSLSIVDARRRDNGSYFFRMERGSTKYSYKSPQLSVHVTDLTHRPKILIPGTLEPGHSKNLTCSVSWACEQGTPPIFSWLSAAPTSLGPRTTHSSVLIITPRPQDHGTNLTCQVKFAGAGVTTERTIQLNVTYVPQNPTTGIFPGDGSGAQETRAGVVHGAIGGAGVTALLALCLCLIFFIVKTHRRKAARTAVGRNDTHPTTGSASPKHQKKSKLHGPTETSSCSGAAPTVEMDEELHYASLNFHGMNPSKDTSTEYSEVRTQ
assay.notes: alanine scan, flow cytometry, HEK293-T;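 further: antibody binding to each alanine-substituted CD33 mutant expressed transiently in HEK293-T, read as fluorescence minus background, mean of duplicates, relative to wild-type CD33 set as 100%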
quantity.measured: Mean % WT Binding (% WT binding)
Report as a plain number; the unit % WT binding is understood.

Provide measured Mean % WT Binding value, entry: Refmab #4 (antibody, V domains shown, The alanine scan used IgG or Fab) VH: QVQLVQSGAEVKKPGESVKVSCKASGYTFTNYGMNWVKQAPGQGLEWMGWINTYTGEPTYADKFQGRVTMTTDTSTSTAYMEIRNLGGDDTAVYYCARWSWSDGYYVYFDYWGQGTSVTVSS VL: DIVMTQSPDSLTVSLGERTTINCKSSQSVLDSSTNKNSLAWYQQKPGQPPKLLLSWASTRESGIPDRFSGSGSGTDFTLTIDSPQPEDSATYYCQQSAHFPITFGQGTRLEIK
106

Provide measured Mean % WT Binding value, entry: Refmab #3 (antibody, V domains shown, The alanine scan used IgG or Fab) VH: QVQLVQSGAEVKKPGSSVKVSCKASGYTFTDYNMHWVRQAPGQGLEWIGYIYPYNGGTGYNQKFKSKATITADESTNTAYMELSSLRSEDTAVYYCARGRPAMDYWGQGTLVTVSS VL: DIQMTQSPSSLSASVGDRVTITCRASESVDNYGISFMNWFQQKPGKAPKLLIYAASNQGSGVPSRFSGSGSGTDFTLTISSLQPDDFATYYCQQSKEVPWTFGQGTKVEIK
146

Provide measured Mean % WT Binding value, entry: Refmab #1 (antibody, V domains shown, The alanine scan used IgG or Fab; also called hP67.6) VH: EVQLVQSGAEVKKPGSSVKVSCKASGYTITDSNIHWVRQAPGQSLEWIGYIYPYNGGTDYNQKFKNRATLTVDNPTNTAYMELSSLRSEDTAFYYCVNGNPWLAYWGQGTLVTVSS VL: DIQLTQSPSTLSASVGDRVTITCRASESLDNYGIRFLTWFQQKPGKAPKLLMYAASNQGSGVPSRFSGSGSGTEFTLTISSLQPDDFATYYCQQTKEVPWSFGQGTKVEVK
86.7

Provide measured Mean % WT Binding value, entry: Refmab #2 (antibody, V domains shown, The alanine scan used IgG or Fab) VH: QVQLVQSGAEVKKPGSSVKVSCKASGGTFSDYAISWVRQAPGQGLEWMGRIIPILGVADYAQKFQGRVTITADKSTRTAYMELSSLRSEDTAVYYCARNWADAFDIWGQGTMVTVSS VL: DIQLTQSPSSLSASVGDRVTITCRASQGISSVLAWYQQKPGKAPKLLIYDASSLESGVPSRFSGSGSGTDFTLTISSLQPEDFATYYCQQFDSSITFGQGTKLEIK
108

Origin of values: patent US20260242735A1
